In this section, each of the molecules is paired with its reported Percent Effect.
# Tested on: Wolbachia pipientis
# assayInfo: Anti-Wolbachia Cell-Based Screen
# Assay type: functional
# Design: scale not given: in the data most compounds retested in dose-response had high values
# measurementContext: 5 µM
The whole screen tested about 48,000 compounds, of which about 13,000 (27%) showed an effect of 50% or more. Some of the results follow.
Number only, in %; omit the unit.

Below are worked cases with known answers.
1. CC(C)(C)C(NC(=O)CCCS(C)(=O)=O)c1ccc(F)cc1F (stereo unspecified); 6.458
2. Cc1ccc(C(=O)NCC(C)Cn2ccnc2C)c(=O)[nH]1 (stereo unspecified); -21.01
3. Cc1ccc(N2CC[C@H]3O[C@@H](C(=O)N4CCCO4)CC[C@H]32)nn1.O=C(O)C(F)(F)F; 88.3
4. CCc1nc2n(n1)CC(NCc1ncc(-c3ccccc3)o1)CC2 (stereo unspecified); -4.969
5. CCc1nc2n(n1)CC(NCc1nc3ccccc3o1)CC2 (stereo unspecified); -13.4

Form field: reported Percent Effect of CCc1nc2n(n1)CC(NCc1cnn(Cc3ccccc3)c1)CC2 (stereo unspecified)
87.86

Would you mind telling me what Percent Effect value was observed for c1ccc(Cc2noc(CNC3CCc4ncnn4C3)n2)cc1 (stereo unspecified) ?
-0.1669

Bench note: what Percent Effect did CCc1nc2n(n1)CC(NCc1cnc(-c3ccccc3)nc1)CC2 (stereo unspecified) show?
109.3
